assay: qHTS of pediatric cancer cell lines to identify multiple opportunities for drug repurposing: Primary screen for Rh18 cells (AID 1347102); settings: Rh18 rhabdomyosarcoma viability, CellTiter-Glo luminescence, 48 h; series mostly up to 46 µM; also: nearly all actives have a fitted effect of over 65% in size
Results filed as inconclusive are left out. The source made the active and inactive calls. Calls follow the shape of the dose curve; as a rule, active = well fitted cell-killing curve with a large enough effect; inconclusive = small, poorly fitted or top-dose-only effect; inactive = flat fitted curve, though single readings scatter.
I would appreciate it if you answered using one of these outcomes: label 1 for active, label 0 for inactive

Take a look at these entries with their results.
- CC(C)(O)[C@H]1CC[C@@](C)([C@H]2[C@@H](O)C[C@@]3(C)[C@@H]4C[C@H](O[C@@H]5O[C@H](CO)[C@@H](O)[C@H](O)[C@@H]5O)[C@H]5C(C)(C)[C@@H](O[C@@H]6OC[C@@H](O)[C@H](O)[C@@H]6O)CC[C@@]56C[C@@]46CC[C@]23C)O1: label 0
- OCc1ccccc1O[C@@H]1O[C@H](CO)[C@H](O)[C@H](O)[C@H]1O: label 0

Challenge: How was C=CCNc1c(O)cc2c(O)c1C[C@@H](C)C[C@H](OC)[C@@H](O)[C@@H](C)C=C(C)[C@H](OC(N)=O)[C@@H](OC)C=CC=C(C)C(=O)N2 classified in this test?
Response given: label 1

Challenge: How was CN[C@H]1[C@@H](O)[C@@H]2O[C@@H]3O[C@H](C)CC(=O)[C@]3(O)O[C@@H]2[C@@H](NC)[C@H]1O classified in this test?
Response given: label 1
